test system: NCI-H226 lung; test: NCI tumour cell line growth inhibition, 48 h; in the data active = GI50 below about 0.43 µM; inactive = the rest
Pick from T (active), F (inactive) when you respond.

compound="CCC(C)(CC(C)(C)C(=O)NCC(=O)NC(Cc1ccccc1)C(=O)NC(Cc1ccccc1)C(=O)NCC(=O)NC1CC(OC2CC(O)(C(=O)CO)Cc3c(O)c4c(c(O)c32)C(=O)c2c(OC)cccc2C4=O)OC(C)C1O)C(=O)NCC(C)O (stereo unspecified)" group=F
compound=COc1cc2c(cc1C)NC(=O)/C2=C/c1ccccn1 group=F
compound=COc1ccc(-c2nc(-c3nc4ccc(OC)cc4[nH]3)c3ccccn23)cc1 group=F

API: the following record is the query input.
How was Cc1cc(O)c(C(C)C)cc1S(=O)(=O)O (tested in a mixture with another compound) classified in this test?
F

====

tested on: COLO 205 colon; assay: NCI tumour cell line growth inhibition, 48 h
Recorded GI50 values for a group of molecules are listed next.

Recorded GI50, per entry:
molecule=COc1ccc(-c2c[nH]c(C(=O)O)c2-c2cc(OC)c(OC)c(OC)c2)cc1 experimental_value="3.31 µM"
molecule=CN[C@@H](C)C(=O)N[C@H](C(=O)N1CCC[C@H]1C(=O)Nc1snnc1-c1ccccc1)C1CCCCC1 experimental_value="21.6 µM"

Turning to the following molecule.
Report GI50, nothing else, for this molecule: CCC(C)(CC(C)(C)C(=O)NCC(=O)NC(Cc1ccccc1)C(=O)NC(Cc1ccccc1)C(=O)NCC(=O)NC1CC(OC2CC(O)(C(=O)CO)Cc3c(O)c4c(c(O)c32)C(=O)c2c(OC)cccc2C4=O)OC(C)C1O)C(=O)NCC(C)O (stereo not drawn)
102 µg/mL

====

tested on: HS 578T breast; assay: NCI tumour cell line growth inhibition, 48 h
MEASUREMENT KIND: TGI (µM)
Write the number in µM without appending the unit.

molecule=COc1cc2ccc(/C=C\[N+](=O)[O-])cc2cc1OC experimental_target="HS 578T breast" experimental_value=37.8
molecule=NC(N)=N/N=C/c1c(-c2ccc(Cl)cc2)nc2sccn12 experimental_target="HS 578T breast" experimental_value=37.6
molecule=CS(=O)(=O)c1nc(-c2cc3c(c(S(C)(=O)=O)n2)CCC3)cc2c1CCCCC2 experimental_target="HS 578T breast" experimental_value=40
molecule=O=C(O)c1nc2cc(C(F)(F)F)ccc2nc1Nc1ccc(F)cc1 experimental_target="HS 578T breast" experimental_value=74.3
molecule=COc1cc(C(=O)O[C@H](C(=O)NCCCCCNC(=O)[C@@H](OC(=O)c2cc(OC)cc3c(C)cccc23)[C@]2(C)CO2)[C@]2(C)CO2)c2cccc(C)c2c1 experimental_target="HS 578T breast" experimental_value=6.51

Report TGI, nothing else, for this molecule: FC(F)(F)c1ccc(Nc2nc(-c3c(C(F)(F)F)nc4ccccn34)cs2)cc1
2.12

Report TGI, nothing else, for this molecule: COc1ccc(C(=O)OC2C(OC3C(O)COC(O[C@H]4C[C@H]5[C@@H]6CC=C7C[C@@H](O)CC[C@]7(C)[C@H]6CC[C@]5(C)[C@H]4[C@H](C)C(=O)CCC(C)C)C3OC(N)=O)OCC(O)C2O)cc1 (some centres not stated)
0.37

Report TGI, nothing else, for this molecule: COc1cc(C[C@H]2c3cc(OC)c(OC)cc3CCN2C)c(Oc2cc3c(cc2OC)-c2c(OC)c(OC)cc4c2[C@H](C3)N(C)CC4)cc1OC
13.1

Report TGI, nothing else, for this molecule: CC1CCC(NC(=O)N(CCCl)N=O)CC1 (configuration not stated)
155

Numbers sourced from PubChem BioAssay (NCI).
